The measured values listed here are drawn from the array DNA melting data of Ke et al. (doi:10.1101/2024.01.08.574731).

- assay_text: melting temperature; fluorescence melt of hairpins on a sequencing array, two-state fit, raised by 9.35 °C to match UV melts
- setup_conditions: sodium 0.088 M
rule met means recorded Tm is 60 °C or above; rule not met means it is below 60 °C.

See these solved cases before continuing.
sequence_data	assigned_category
CGAGTCGGAAACGATCG (((.(((....))))))	rule not met
GATCCACGTGTGGATC ((((((....))))))	rule met
GGCAGACGAAAGTCAGCC (((.(((....))).)))	rule met
GAAAAAGCGAAAGCTTTC (((..(((....))))))	rule not met
GCCGACCGAAAGGTGGC (((.(((....))))))	rule met

**Q:** Would you say GCGCACCGAAAGGTCCGC (((.(((....))).))) shows Tm at minimum 60 °C?
**A:** rule not met

**Q:** Try this sequence too: GATCGGCGAACCGATC ((((((....))))))
**A:** rule not met

**Q:** Try this sequence too: GGTTGCGGAAACGCAGCC ((.((((....)))).))
**A:** rule met

====

- assay_text: folding enthalpy; higher = less favourable; fluorescence melt of hairpins on a sequencing array, two-state fit
- setup_conditions: sodium 0.088 M
endpoint_name: folding enthalpy (kcal/mol)
Answer with a number only, understood to be in kcal/mol.

sequence_data	unit_tag	folding enthalpy
GTGGGAACGAAAGTTCAC (((..(((....))))))	kcal/mol	-34.3
GTAGGTGGAAACACCCAC ((.((((....)))).))	kcal/mol	-13.1
GCCCGCGGAAACACGGGC (((((.(....).)))))	kcal/mol	-47.9
GTCCTGGCGAAAGCCGAC (((..(((....))))))	kcal/mol	-9.43
GTCTGTACGAAAGTAGAC (((..(((....))))))	kcal/mol	-24.2
GATCCTGAGCAGGATC ((((((....))))))	kcal/mol	-36.9
GATCAGAGCGCTGATC ((((((....))))))	kcal/mol	-27.4
GATTAACGAAAGTTCATC (((.(((....))).)))	kcal/mol	-24.6
GACGCCGAAAGGCTCGTC ((((((....)))..)))	kcal/mol	-14.5
GTTGAACGAAAGTTAAC (((.(((....))))))	kcal/mol	-12.3

**Q:** Record request: folding enthalpy value, item CTTTTGAAAAAAAG (((((....)))))
**A:** -7.85

**Q:** Try this sequence too: GATCCCTGGTGGGATC ((((((....))))))
**A:** -31.1

====

- assay_text: melting temperature; fluorescence melt of hairpins on a sequencing array, two-state fit, raised by 9.35 °C to match UV melts
- setup_conditions: sodium 0.088 M
endpoint_name: Tm (°C)
Answer with a number only, understood to be in °C.

# example entries with known answers
sequence_data	Tm (°C)
GCAGACGAAAGTCCTTGC ((((((....)))..)))	32.5
GCTGAACGAAAGTTAGC (((.(((....))))))	44.1
GAAAACCCGAAAGGGTTC (((..(((....))))))	39.8
GATCTGGAACAGATC ((((((...))))))	58.8
GGGCTGCGAAAGCACCC (((.(((....))))))	57.2

Now take the following sequence into account.
**Q:** Record request: Tm value, item GTGTCAGAAATGACAC ((((((....))))))
**A:** 56.4
